assay: in vitro; conditions: rat, gh3-tre-luc cells, AC50 (uM) modified / 1000, Tox21_110001=Tox21_201593; viability, 1 nM T3 present, 24 h
Metric name: CC50 at 24 h

Compound	Data value
CCCCOCCOP(=O)(OCCOCCCC)OCCOCCCC [Tris(2-butoxyethyl) phosphate]	> 90 µM

----------
test: in vitro; conditions: rat, gh3-tre-luc cells, AC50 (uM) modified / 1000
Where a name gives a salt, the structure may show the parent alone.
Metric name: CC50 at 24 h

Compound	Metric name	Data value
c1ccc(Oc2ccccc2)cc1 [Diphenyl oxide]	CC50 at 24 h	> 90 µM
COC1=C(C(=O)O)N2C(=O)[C@@H](NC(=O)[C@H](N)C3=CCC=CC3)[C@H]2SC1	CC50 at 24 h	> 50 µM
OC[C@H]1O[C@@H](n2cnc3c(O)ncnc32)[C@H](O)[C@@H]1O	CC50 at 24 h	> 50 µM
O=[N+]([O-])c1ccc(O)c2ncccc12	CC50 at 24 h	4.94 µM
N#CC(c1ccc(Cl)cc1)c1c(Cl)cc(-n2ncc(=O)[nH]c2=O)cc1Cl (stereo not drawn)	CC50 at 24 h	> 50 µM
SC1CCCCC1	CC50 at 24 h	> 100 µM
CCCN1CCC[C@@H]2Cc3n[nH]cc3C[C@H]21 [(-)-Quinpirole hydrochloride]	CC50 at 24 h	> 50 µM
CC1CN(c2cc3c(cc2F)c(=O)c(C(=O)O)cn3-c2ccc(F)cc2F)CCN1 (stereo not drawn)	CC50 at 24 h	> 50 µM
Cc1ccc(N/N=c2\c(=O)cc/c(=N/Nc3ccc(S(=O)(=O)O)cc3)c2=O)c(C)c1 [C.I. Acid Orange 24, monosodium salt]	CC50 at 24 h	59.4 µM

----------
biological target: human RXRα (Homo sapiens); construct: host or cells: GeneBLAzer UAS-bla HEK 293T; assay: RXRa-bla-Ag mammalian one-hybrid beta-lactamase assay (TOX21_TR_RXR_BLA_Agonist_Followup_ratio, aeid 2253); type: cell-based; settings: HEK 293T one-hybrid, agonist mode; inactive set to 1,000; read-out: RXRa-bla-Ag AC50
Sequence (P19793 227-458 limits assumed): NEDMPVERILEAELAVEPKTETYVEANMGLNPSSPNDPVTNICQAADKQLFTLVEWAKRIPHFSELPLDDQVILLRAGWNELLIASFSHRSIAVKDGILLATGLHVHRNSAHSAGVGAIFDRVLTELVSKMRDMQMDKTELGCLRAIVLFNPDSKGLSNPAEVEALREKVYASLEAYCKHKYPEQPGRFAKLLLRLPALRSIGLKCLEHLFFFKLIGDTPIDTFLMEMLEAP
Metric name: AC50

Compound	Data value
CC(C)(C)CC(C)(C)c1ccc(O)c(Cc2ccc(Cl)cc2Cl)c1 [Clofoctol, reference compound]	6.8 µM
O=C(O)CCNC(=O)c1ccccc1 [Betamipron, reference compound]	> 92 µM
N[C@@H](Cc1cc(I)c(Oc2cc(I)c(O)c(I)c2)c(I)c1)C(=O)O [Levothyroxine, reference compound]	1.36 µM

----------
experiment: in vitro; set-up: species or system GH3-TRE-Luc (rat pituitary); CellTiter-Fluor viability run in parallel with antagonist mode (1 nM T3), loss of viability; conditions: rat, gh3-tre-luc cells, AC50 (uM) modified / 1000, Tox21_110001=Tox21_200266, viability, 1 nM T3 present
Metric name: CC50 at 24 h

Compound	Metric name	Data value
ClCc1ccccc1 [Benzyl chloride]	CC50 at 24 h	> 90 µM

----------
experiment: in vitro; conditions: rat, gh3-tre-luc cells, AC50 (uM) modified / 1000, Tox21_110001=Tox21_201195; viability, 1 nM T3 present, 24 h
Metric name: CC50 at 24 h

Smiles entry	Data value
COc1c(C(C)(C)C)cc([N+](=O)[O-])c(C)c1[N+](=O)[O-]	> 90 µM

Data origin, for the record: paper PMC6792352
